- system-under-test: HLA-A*02:01 (Homo sapiens, UniProt P04439, D140Y/D185E/D98H/E176V/E277Q/G131W/G231S/I119V/I121R/I166T/I218V/L300P/L318F/N151K/N90K/P208A/P217A/Q86G/Q94H/R138H/R169H/T345S)
- protocol-details: MHC binding assay (UV-ligand exchange, β2m ELISA, peptide exchange yield)
- measurement-conditions: binding of HLA-class I restricted peptides to HLA-A*02:01, UV-ligand exchange
readout-label: Peptide exchange (MHC class I binding score, peptide exchange yield)

| substance | meas-value |
| --- | --- |
| 331 (KVDTVWVNV; listed as Homo sapiens) [compound 331] | “+++” (≥50 = +++) |
| 107 (FLQPVDDTQHL; listed as Homo sapiens) [compound 107] | “+++” (≥50 = +++) |
| 516 (AVGPASILKEV; listed as Homo sapiens) [compound 516] | “++” (≥20% = ++) |
| 215 (QLINHLHAV; listed as Homo sapiens) [compound 215] | “+++” (≥50 = +++) |
| 140 (YMDAPKAAL; listed as Homo sapiens) [compound 140] | “++” (≥20% = ++) |
| 171 (LLLPLQILL; listed as Homo sapiens) [compound 171] | “+++” (≥50 = +++) |
| 474 (YLDPALELGPRNV; listed as Homo sapiens) [compound 474] | “+++” (≥50 = +++) |
| 175 (YLFENISQL; listed as Homo sapiens) [compound 175] | “+++” (≥50 = +++) |
| 231 (FLSPQQPPLLL; listed as Homo sapiens) [compound 231] | “++” (≥20% = ++) |
| 296 (FMEGAIIYV; listed as Homo sapiens) [compound 296] | “+++” (≥50 = +++) |
